tested target: T1, FLT3xCD3 TCE SEQ ID NO 93
T1 construct: Single-chain scFv-scFv-scFc T cell engager; also called FLT3×CD3ε TCE; FLT3_7 A8xCD3-scFc Bispecific HLE molecule
protocol: SPR solution competition, peptide titrated into fixed TCE, free TCE read on peptide capture surface
From the text: For the binding assessment, Individual binding isotherms were constructed by titrating the respective peptide of interest into a fixed concentration of TCE-containing solution in PBST. […] For the analysis, a calibration curve was first constructed of the TCE analyte being assessed. […] The ‘free’ TCE concentration measured was plotted as a function of log peptide concentration and fit using non-linear regression analysis to a 4 parameter logistic function to derive an IC50.
Where no end group is shown, it is not given here. [ ]: non-standard residue; d: D form. pGlu = O=C1CC[C@@H](C(=O)O)N1

[
  {
    "binder": "[pGlu]DGEEELKGC [pGlu-DGEEELKGC]",
    "IC50 / nM": 14.7
  },
  {
    "binder": "QDGNEEMG",
    "IC50 / nM": 133
  },
  {
    "binder": "[pGlu]DGSEELKGC (Position 1 is written E for pGlu) [pGlu-DGSEELKGC]",
    "IC50 / nM": 8.2
  },
  {
    "binder": "[pGlu]DGNEEMGKGMEENGDQC (Position 1 is written E for pE) [pGlu-DGNEEMGKGMEENGDQC]",
    "IC50 / nM": 2.4
  }
]

Entry source: patent US20260258083A1
